The measurements presented in this section are drawn from PubChem BioAssay.

Listing of recorded composite z-score by entry.
# Test system: wheat germ agglutinin (Triticum aestivum), Alexa647-labelled
# Experiment Description: wheat germ agglutinin binders on compound microarrays, profiling panel, artefact control for SMM control-protein annotation, biochemical, small-molecule microarray, 635/667 nm fluorescence (AID 1140);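 note: score merges 667 nm feature emission with signal to noise over triplicate slides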
# Experimental Setup: WGA-A647 binding, 635 nm fluorescence, higher = more signal
Property Name: composite z-score

[[record]]
compound = "CN(C)CCCNC(=O)[C@@]1(c2ccc([N+](=O)[O-])cc2)CC(=O)N(CC23CC4CC(CC(C4)C2)C3)[C@@H]1c1ccc(CO)cc1"
property_name = "composite z-score"
observed_value = 0.955

[[record]]
compound = "C=CC[C@]12N=C(c3ccc(OCCCO)cc3)O[C@H]1c1ccccc1N(C)C2=O"
property_name = "composite z-score"
observed_value = 0.675

[[record]]
compound = "C=C(/C(=C/C[C@@H](OC(=O)c1ccncc1)c1ccccc1OCCO)c1cc(C(=O)OC)ccc1OC)C(C)C"
property_name = "composite z-score"
observed_value = 0.986

[[record]]
compound = "C[C@H]1C2=C3C(CC[C@H]4C(OCc5ccc(F)cc5C(F)(F)F)OC[C@](C)([C@@H]34)N(C(=O)OC(C)(C)C)C2)C(CO)C1CO (stereo not given in full)"
property_name = "composite z-score"
observed_value = 0.608

[[record]]
compound = "C[C@]1(C(=O)O)c2ccccc2C(=O)N(Cc2ccccc2)[C@H]1c1ccc(CO)cc1"
property_name = "composite z-score"
observed_value = -1.37

[[record]]
compound = "COCCOC(=O)N1C(=O)[C@@]2(c3ccccc31)[C@H](C(=O)N1CCN(c3ncccn3)CC1)[C@H]1C(=O)O[C@H](c3ccccc3)[C@H](c3ccccc3)N1[C@@H]2c1ccc(OCCO)cc1"
property_name = "composite z-score"
observed_value = 0.965

[[record]]
compound = "NC(=O)NCC#Cc1ccc2c(c1)[C@]1(C(=O)N2)[C@H](C(=O)Nc2nc3ccccc3s2)[C@H]2C(=O)O[C@H](c3ccccc3)[C@H](c3ccccc3)N2[C@@H]1c1ccc(O)cc1"
property_name = "composite z-score"
observed_value = 0.696

[[record]]
compound = "COCCCNC(=O)[C@@H]1c2ccccc2C(=O)N(Cc2ccccc2C(F)(F)F)[C@H]1c1ccc(CO)cc1"
property_name = "composite z-score"
observed_value = -0.488

[[record]]
compound = "CC(=O)n1cc(C(O)C2C=CC3C(=O)N(Cc4ccccc4)C(=O)C3N2n2cnnc2)c2ccccc21 (stereo not given)"
property_name = "composite z-score"
observed_value = 0.505

[[record]]
compound = "COCCCNC(=O)[C@]1(CCC(=O)OC(C)(C)C)N=C(c2ccc(OCCCO)cc2)O[C@@H]1c1ccccc1"
property_name = "composite z-score"
observed_value = 1.12

[[record]]
compound = "O=C1O[C@@H](c2ccccc2)[C@@H](c2ccccc2)N2[C@@H](c3ccc(O)cc3)[C@]3(C(=O)Nc4ccccc43)[C@@H](C(=O)Nc3nc4ccccc4s3)[C@H]12"
property_name = "composite z-score"
observed_value = 0.634

[[record]]
compound = "O=C1C[C@@](C(=O)NCC(F)(F)F)(c2ccc([N+](=O)[O-])cc2)[C@@H](c2ccc(CO)cc2)N1C1CCCCC1"
property_name = "composite z-score"
observed_value = 0.861

[[record]]
compound = "NCCCCCCNC(=O)[C@@H]1C[C@@H]2C(=O)N3CCC[C@H]3C(=O)N2[C@@H]1c1ccc(O)cc1"
property_name = "composite z-score"
observed_value = 0.636

[[record]]
compound = "C=CCNC(=O)[C@H]1[C@@H]2C(=O)O[C@@H](c3ccccc3)[C@@H](c3ccccc3)N2[C@@H](c2ccccc2OCCO)[C@]12C(=O)N(C(=O)OCCOC)c1ccc(C#CC3=CCCCC3)cc12"
property_name = "composite z-score"
observed_value = 0.993

[[record]]
compound = "CC(C)N1C(=O)[C@@]2(c3ccc([N+](=O)[O-])cc3)CC(=O)N(C3CCCCC3)[C@@H]2c2ccc(CO)cc21"
property_name = "composite z-score"
observed_value = -0.246

[[record]]
compound = "C=C(CCCC)C(=O)CC[C@@H](OC(=O)c1cccnc1)c1ccccc1OCCO"
property_name = "composite z-score"
observed_value = 0.058

[[record]]
compound = "C[C@@H]1ON(c2ccc(C(=O)OC(C)(C)C)cc2)[C@H](c2ccc(Br)cc2)[C@H]1C(=O)N1C(=O)OC[C@H]1Cc1ccccc1"
property_name = "composite z-score"
observed_value = 0.377

[[record]]
compound = "CON(C)C(=O)C=C1C[C@@H](c2cccc(Cl)c2)O[C@@H](c2cccc(Cl)c2)O1"
property_name = "composite z-score"
observed_value = 0.462

[[record]]
compound = "C[n+]1ccc(CCCO)cc1"
property_name = "composite z-score"
observed_value = -0.72

[[record]]
compound = "Cc1ccc(F)cc1S(=O)(=O)N[C@@H]1CCN(Cc2ccc(OC(C)C)cc2)C1"
property_name = "composite z-score"
observed_value = -1.28

[[record]]
compound = "C[C@H]1ON(c2ccc(C(=O)OC(C)(C)C)cc2)[C@@H](c2ccc(O)cc2)[C@@H]1C(=O)N1C(=O)OC[C@@H]1c1ccccc1"
property_name = "composite z-score"
observed_value = 0.38

[[record]]
compound = "Cc1ccc(C(C)CC(O)C2C=CC3C(=O)N(c4ccccc4)C(=O)C3N2Nc2ccc(C(C)C)cc2)o1 (stereo not given)"
property_name = "composite z-score"
observed_value = 1.15

[[record]]
compound = "O=C1O[C@H](c2ccccc2)[C@H](c2ccccc2)N2[C@H]1[C@@H](C(=O)O)[C@]1(C(=O)Nc3ccccc31)[C@H]2c1ccc(O)cc1"
property_name = "composite z-score"
observed_value = -0.55

[[record]]
compound = "CCOC(=CC(=O)OC)CC(O)c1cccc(Cl)c1 (stereo not given)"
property_name = "composite z-score"
observed_value = 1.22

[[record]]
compound = "CCOC(=O)C[C@H]1[C@H](OC(=O)c2ccc(-c3ccccc3)cc2)[C@@H](NC(=O)c2ccc3ccccc3n2)c2cc(OCCCO)ccc2N1C(=O)c1ccccc1"
property_name = "composite z-score"
observed_value = 0.262

[[record]]
compound = "O=c1cccc(-c2ccc(C(F)(F)F)cc2)o1"
property_name = "composite z-score"
observed_value = -0.399

[[record]]
compound = "[N-]=[N+]=NCc1ccccc1C[C@@]1(C(N)=O)N=C(c2ccc(OCCCO)cc2)O[C@@H]1c1ccccc1CN=[N+]=[N-]"
property_name = "composite z-score"
observed_value = 0.756

[[record]]
compound = "C=CCN1C(=O)[C@@]2(CCC(=O)OC(C)(C)C)N=C(c3ccc(OCCCO)cc3)O[C@H]2c2ccccc21"
property_name = "composite z-score"
observed_value = 0.525

[[record]]
compound = "NC(=O)N1C(=O)C2C(C1=O)C1C=C(CCCO)C2C(c2cccs2)N1Cc1cc2c(cc1Br)OCO2 (stereo not given)"
property_name = "composite z-score"
observed_value = 0.851

[[record]]
compound = "CN(C)CCCNC(=O)[C@@H]1c2ccccc2C(=O)N(CC23CC4CC(CC(C4)C2)C3)[C@H]1c1ccc(CO)cc1"
property_name = "composite z-score"
observed_value = 0.665

